# Test system: SF-539
# procedure text: NCI tumour cell line growth inhibition, 48 h
The source made the active and inactive calls. Cut-off read from the data, not from the text of the source: active = GI50 up to about 1.1 µM and inactive = higher.
measured endpoint: GI50

>>> df
                                   compound       endpoint_value
0  O=C1C=CC2(CCC23C=CC(=O)O3)O1 (stereo not given)  > 100 µM (inactive)
1  CCCC(=O)Nc1cc(/C=C/C(=O)N2CC(CCl)c3c2cc([N+](=O)[O-])c2ccccc32)n(C)c1 (stereo not given)   56.1 µM (inactive)
2      CCn1ncc(Oc2c(Cl)cc(N)cc2Cl)c(Cl)c1=O   31.6 µM (inactive)
3  CCOC(=O)c1csc(NC(=O)C(C)N2CCOCC2)n1 (stereo not given)  > 100 µM (inactive)
4  CSc1ncc2c(n1)-c1ccccc1OC2NC1CC1 (stereo not given)  > 100 µM (inactive)

====

# System: SK-MEL-28
# procedure text: NCI tumour cell line growth inhibition, 48 h
Calls of active or inactive are those of the source. Rule as the data show it: active = GI50 up to about 1.1 µM and inactive = higher. Where a SMILES comes first, the peptide text is derived from it. The star is where a group is joined. Boc = CC(C)(C)OC(=O)*; Bn = c1ccc(C*)cc1

compound	GI50
CCOC(=O)Oc1ccc2c(c1)c(=O)c1c(NCCCN(CC)CC)ccc3nnn2c31	18.6 µM (inactive)
O=C(O)c1cc(=O)c2[nH]c3ccccc3c2s1	> 100 µM (inactive)
COC(=O)C(CC(C)C)NC(=O)CNC(=O)C(Cc1ccc(OCc2ccccc2)cc1)NC(=O)C(COCc1ccccc1)NC(=O)OC(C)(C)C (stereo not drawn) (Boc-S(Bn)Y(Bn)GL-OMe; configuration not given here)	> 100 µM (inactive)
O=C1/C(=C/c2ccc(C(=O)O)cc2)CNC/C1=C\c1ccc(C(=O)O)cc1	> 100 µM (inactive)
Cc1cn(C2CC(O)C(COC(N)=O)O2)c(=O)[nH]c1=O (stereo not drawn)	> 100 µM (inactive)
CCN(CC)CCCOC(=O)/C=C/c1c(C)[nH]c(=O)[nH]c1=O	> 625 µM (inactive)
CCn1ncc(Oc2c(Cl)cc(N)cc2Cl)c(Cl)c1=O	51.3 µM (inactive)
N#CCCN(CCC#N)c1ccc(/C=C2\N=C(c3cc([N+](=O)[O-])ccc3Cl)N(S(=O)(=O)c3ccccc3)C2=O)cc1	> 100 µM (inactive)

====

# System: 786-0
# procedure text: NCI tumour cell line growth inhibition, 48 h
The source made the active and inactive calls. No stated cut-off is given here; in the data, active = GI50 up to about 1.1 µM and inactive = higher. Peptide text beside a SMILES is read from it. * marks the point of attachment. OSu = O=C1CCC(=O)N1O*
Quick reference for GI50 among some compounds
measured endpoint: GI50

compound	endpoint value
Cc1cc(C)c(S(=O)(=O)ONC(=O)OC(C)(C)C)c(C)c1	> 100 µM (inactive)
CCOP(=O)(OCC)/C(C#N)=C/c1c(C)[nH]c2ccccc12	> 100 µM (inactive)
CCn1ncc(Oc2c(Cl)cc(N)cc2Cl)c(Cl)c1=O	41.5 µM (inactive)
S=C(c1c[nH]c2ccccc12)N1CCN(Cc2ccccc2)CC1	15.7 µM (inactive)
COc1ccc(-c2nc(SCC(=O)NNC(=S)Nc3ccccc3)[nH]c2-c2ccc(OC)cc2)cc1	23.7 µM (inactive)
Cc1ccc(S(=O)(=O)Nc2cc(O)nc3c2CCC3)cc1	> 100 µM (inactive)
COC1=CC(=O)[C@]2(C)[C@H](C1=O)C(C)[C@H]2c1ccc(OC)cc1 (stereo not given in full)	> 100 µM (inactive)
NCCCCC(NC(=O)C(N)Cc1ccc(O)cc1)C(=O)NC(CCCCN)C(=O)NC(CCCCN)C(=O)ON1C(=O)CCC1=O (stereo not given) (H-YKKK-OSu; configuration not given here)	> 100 µM (inactive)
CCOC(=O)CCC(NC(=O)c1ccc(OCc2nc3cc(C(F)(F)F)ccc3nc2-c2ccccc2)cc1)C(=O)OCC (stereo not given)	> 100 µM (inactive)
CC(=O)NC(=O)/N=C1\NCCC(=O)N1CCc1c[nH]c2ccccc12	> 100 µM (inactive)
